tested on: M. moganii IIDkono; assay: MIC against M. moganii IIDkono by the plate diluted method; assay type: cell-based; conditions: M. moganii IIDkono; 1×10^6 cells/ml; read-out: MIC
// values below are reported MIC
Numbers only here, please. The scale is µg/mL.

| Compound | Readout Label | Result Number |
| --- | --- | --- |
| CO/N=C(\C(=O)N[C@@H]1C(=O)N2C(C(=O)[O-])=C(CSc3cc[n+](CC(=O)c4ccc(O)c(O)c4)cc3)CS[C@H]12)c1csc(N)n1 | MIC | 0.1 |
| Nc1nc(/C(=N/OCc2cc(=O)c(O)cn2O)C(=O)N[C@@H]2C(=O)N3C(C(=O)O)=C(CSc4nnnn4CC(=O)O)SC[C@H]23)ns1 | MIC | 0.024 |
| Nc1nc(/C(=N/OCc2cc(=O)c(O)cn2O)C(=O)N[C@@H]2C(=O)N3C(C(=O)O)=C(CSc4nnnn4CC(=O)O)SC[C@H]23)cs1 | MIC | 0.024 |

Challenge: Output MIC of "CC(C)(O/N=C(\C(=O)N[C@@H]1C(=O)N2C(C(=O)[O-])=C(CSc3cc[n+](CC(=O)c4ccc(O)c(O)c4)cc3)SC[C@H]12)c1csc(N)n1)C(=O)O"
Response given: 0.024

Challenge: Output MIC of "Nc1nc(/C(=N/OCc2cc(=O)c(O)cn2O)C(=O)N[C@@H]2C(=O)N3C(C(=O)O)=C(CSc4nnc(N)s4)SC[C@H]23)cs1"
Response given: 0.05

Challenge: Output MIC of "Cc1nc(SCC2=C(C(=O)O)N3C(=O)[C@@H](NC(=O)/C(=N\OCc4cc(=O)c(O)cn4O)c4csc(N)n4)[C@H]3CS2)sc1CC(=O)O"
Response given: 0.024

* * *

// values below are reported MIC
System: S. aureaus FDA-209P
Assay: MIC against S. aureaus FDA-209P by the plate diluted method
Assay type: cell-based
Conditions: Staphylococcus aureus, FDA209P; S. aureaus FDA-209P; 1×10^6 cells/ml; read-out: MIC
Method: In order to investigate the in vitro activity of the test compounds against various bacteria, the minimal inhibitory concentration (MIC) values were determined by the plate diluted method (See CHEMOTHERAPY, 22, 1126-1128, 1974.) Each strain was adjusted to 1×10^6 cells/ml (O.D. 600 mμ, 0.07 to 0.16).
Numbers only here, please. The scale is µg/mL.

For orientation, consider the following solved cases.
| Compound | MIC (µg/mL) |
| --- | --- |
| Nc1nc(/C(=N/OCc2cc(=O)c(O)cn2O)C(=O)N[C@@H]2C(=O)N3C(C(=O)O)=C(CSc4snc(O)c4C(=O)O)SC[C@H]23)ns1 | 100 |
| Cc1nc(SCC2=C(C(=O)O)N3C(=O)[C@@H](NC(=O)/C(=N\OCc4cc(=O)c(O)cn4O)c4nsc(N)n4)[C@H]3SC2)sc1CC(=O)O | 100 |
| CC(C)(O/N=C(\C(=O)N[C@@H]1C(=O)N2C(C(=O)[O-])=C(CSc3cc[n+](Cc4cc(=O)c(O)c[nH]4)cc3)CS[C@H]12)c1csc(N)n1)C(=O)O | 6.25 |

Challenge: Output MIC of "CO/N=C(\C(=O)N[C@@H]1C(=O)N2C(C(=O)[O-])=C(CSc3cc[n+](CC(=O)c4ccc(O)c(O)c4)cc3)CS[C@H]12)c1csc(N)n1"
Response given: 0.39

Challenge: Output MIC of "CC(C)(O/N=C(\C(=O)N[C@@H]1C(=O)N2C(C(=O)[O-])=C(CSc3cc[n+](CC(=O)c4ccc(O)c(O)c4)cc3)SC[C@H]12)c1csc(N)n1)C(=O)O"
Response given: 0.78

Challenge: Output MIC of "Cc1nc(SCC2=C(C(=O)O)N3C(=O)[C@@H](NC(=O)/C(=N\OCc4cc(=O)c(O)cn4O)c4nsc(N)n4)[C@H]3CS2)sc1CC(=O)O"
Response given: 100

* * *

tested on: S. aureaus FDA-209P; assay: MIC against S. aureaus FDA-209P by the plate diluted method; format: cell-based; conditions: Staphylococcus aureus, FDA209P; S. aureaus FDA-209P; 1×10^6 cells/ml; read-out: MIC
// values below are reported MIC
Numbers only here, please. The scale is µg/mL.

| Compound | Measure Unit | MIC |
| --- | --- | --- |
| Nc1nc(/C(=N/OCc2cc(=O)c(O)cn2O)C(=O)N[C@@H]2C(=O)N3C(C(=O)[O-])=C(CSc4cc[n+](CC(=O)O)cc4)SC[C@H]23)ns1 | µg/mL | 12.5 |
| Nc1nc(/C(=N/OCc2cc(=O)c(O)cn2O)C(=O)N[C@@H]2C(=O)N3C(C(=O)[O-])=C(CSc4cc[n+](CC(=O)O)cc4)CS[C@H]23)ns1 | µg/mL | 6.25 |
| Nc1nc(/C(=N/OCc2cc(=O)c(O)cn2O)C(=O)N[C@@H]2C(=O)N3C(C(=O)O)=C(CSc4nnnn4CCO)SC[C@H]23)cs1 | µg/mL | 50 |
| Nc1nc(/C(=N/OCc2cc(=O)c(O)cn2O)C(=O)N[C@@H]2C(=O)N3C(C(=O)O)=C(CSc4nncs4)SC[C@H]23)cs1 | µg/mL | 12.5 |
| Nc1nc(/C(=N/OCc2cc(=O)c(O)cn2O)C(=O)N[C@@H]2C(=O)N3C(C(=O)O)=C(CSc4nnnn4CC(=O)O)SC[C@H]23)cs1 | µg/mL | 100 |

Challenge: Output MIC of "Nc1nc(/C(=N/OCc2cc(=O)c(O)cn2O)C(=O)N[C@@H]2C(=O)N3C(C(=O)[O-])=C(CSc4cc[n+](CC(=O)O)cc4)SC[C@H]23)cs1"
Response given: 12.5

* * *

// values below are reported MIC
Test system: S. aureaus FDA-209P
Test: MIC against S. aureaus FDA-209P by the plate diluted method
Assay type: cell-based
Conditions: Staphylococcus aureus, FDA209P; S. aureaus FDA-209P; 1×10^6 cells/ml; read-out: MIC
Method: In order to investigate the in vitro activity of the test compounds against various bacteria, the minimal inhibitory concentration (MIC) values were determined by the plate diluted method (See CHEMOTHERAPY, 22, 1126-1128, 1974.) Each strain was adjusted to 1×10^6 cells/ml (O.D. 600 mμ, 0.07 to 0.16).
Numbers only here, please. The scale is µg/mL.

For orientation, consider the following solved cases.
| Molecule | Tested On | Result Number |
| --- | --- | --- |
| Nc1nc(/C(=N/OCc2cc(=O)c(O)cn2O)C(=O)N[C@@H]2C(=O)N3C(C(=O)O)=C(CSc4nnnn4CC(=O)O)CS[C@H]23)ns1 [No. 21] | S. aureaus FDA-209P | 100 |
| Nc1nc(/C(=N/OCc2cc(=O)c(O)cn2O)C(=O)N[C@@H]2C(=O)N3C(C(=O)O)=C(CSc4nnnn4CC(=O)O)SC[C@H]23)ns1 [No. 20] | S. aureaus FDA-209P | 100 |
| Nc1nc(/C(=N/OCc2cc(=O)c(O)cn2O)C(=O)N[C@@H]2C(=O)N3C(C(=O)O)=C(CSc4nnc(N)s4)SC[C@H]23)cs1 [No. 10] | S. aureaus FDA-209P | 50 |
| Nc1nc(/C(=N/OCc2cc(=O)c(O)cn2O)C(=O)N[C@@H]2C(=O)N3C(C(=O)O)=C(CSc4snc(O)c4C(=O)O)CS[C@H]23)ns1 [No. 23] | S. aureaus FDA-209P | 100 |
| Cc1nnc(SCC2=C(C(=O)O)N3C(=O)[C@@H](NC(=O)/C(=N\OCc4cc(=O)c(O)cn4O)c4csc(N)n4)[C@H]3CS2)s1 [No. 1] | S. aureaus FDA-209P | 25 |

Challenge: Output MIC of Cc1nc(SCC2=C(C(=O)O)N3C(=O)[C@@H](NC(=O)/C(=N\OCc4cc(=O)c(O)cn4O)c4csc(N)n4)[C@H]3CS2)sc1CC(=O)O [No. 13]
Response given: 100

* * *

// values below are reported MIC
system: M. moganii IIDkono; experiment: MIC against M. moganii IIDkono by the plate diluted method; assay type: cell-based; details: M. moganii IIDkono; 1×10^6 cells/ml; read-out: MIC
Numbers only here, please. The scale is µg/mL.

| Compound | Measure Unit | Result Number |
| --- | --- | --- |
| CC(C)(O/N=C(\C(=O)N[C@@H]1C(=O)N2C(C(=O)[O-])=C(CSc3cc[n+](CC(=O)c4ccc(O)c(O)c4)cc3)CS[C@H]12)c1csc(N)n1)C(=O)O [No. 16] | µg/mL | 0.05 |
| CC(C)(O/N=C(\C(=O)N[C@@H]1C(=O)N2C(C(=O)[O-])=C(CSc3cc[n+](CC(=O)NNC(=O)c4ccc(O)c(O)c4)cc3)SC[C@H]12)c1csc(N)n1)C(=O)O [No. 4] | µg/mL | 0.024 |
| Nc1nc(/C(=N/OCc2cc(=O)c(O)cn2O)C(=O)N[C@@H]2C(=O)N3C(C(=O)O)=C(CSc4nncs4)SC[C@H]23)cs1 [No. 2] | µg/mL | 0.1 |
| CC(C)(O/N=C(\C(=O)N[C@@H]1C(=O)N2C(C(=O)[O-])=C(CSc3cc[n+](Cc4cc(=O)c(O)c[nH]4)cc3)SC[C@H]12)c1csc(N)n1)C(=O)O [No. 7] | µg/mL | 0.024 |

Here is another compound to look at.
Challenge: Output MIC of Nc1nc(/C(=N/OCc2cc(=O)c(O)cn2O)C(=O)N[C@@H]2C(=O)N3C(C(=O)[O-])=C(CSc4cc[n+](CC(=O)O)cc4)SC[C@H]23)ns1 [No. 24]
Response given: 0.024

Reference source: patent US5262411A
